What AC50 was measured for each of the following?
- Target or test system: Heat shock protein HSP 90-alpha (Homo sapiens, UniProt P07900)
- Format: functional, organism-based
The source made the active and inactive calls.

# AC50 (molecule: `O=C(CCSc1nnc(-c2ccncc2)o1)Nc1ccc(Cl)cc1` ) is 1650 nM (active)

# AC50 (molecule: `COc1cc2cnc(-c3ccccc3)c(C(=O)c3ccc(F)cc3)c2cc1OC` ) is 2120 nM (active)

# AC50 (molecule: `Oc1c(Br)cc(Br)cc1/C=N/Cc1ccc(F)cc1` ) is 6150 nM (active)

---

Record type: AC50 measurement. Applies to: Cytochrome P450 3A4 (Homo sapiens, UniProt P08684)

# AC50 (molecule: CN(c1ccc(C(=O)NC2CC3CCC2C3)cc1)S(C)(=O)=O (configuration not stated) ) is 15.8 µM (inconclusive)

# AC50 (molecule: `O=C(N/N=C/c1cccc(OCc2ccccc2)c1)c1cccs1` ) is 20 µM (inconclusive)

# AC50 (molecule: `CC(=O)N1CCC[C@@]2(CCN(c3ccccc3)C2)C1` ) is 25.1 µM (inconclusive)

# AC50 (molecule: CN1c2ccccc2C(C)(C)C12C=Nc1c(cc(N3CCOCC3)c3ccccc13)O2 (configuration not stated) ) is 4.47 µM (inconclusive)

# AC50 (molecule: `N#CCCn1c(=O)c(-c2cc(F)cc(F)c2)nc2cnc(N3CCOCC3)nc21` ) is 20 µM (inconclusive)

# AC50 (molecule: `Cc1ccccc1OCC(=O)N/N=C1\CCOc2c(C)cccc21` ) is 3.16 µM (inconclusive)

# AC50 (molecule: `COc1ccc(OC)c(NC(=O)Cn2cccc2)c1` ) is 15.8 µM (inconclusive)

# AC50 (molecule: COc1ccc(C2=NOC(C(=O)N3CCCc4ccccc43)C2)cc1 (configuration not stated) ) is 12.6 µM (inconclusive)

# AC50 (molecule: `CCOc1ccc(OCc2ccc(C(=O)N3CCc4ccccc4C3)o2)cc1` ) is 39.8 µM (inconclusive)

# AC50 (molecule: `CCOc1c2ccc(C(=O)N[C@H](C)C3CCCCC3)cc2nn1CC` ) is 25.1 µM (inconclusive)

# AC50 (molecule: `CC(=O)OC[C@H]1O[C@@H](O/N=C(\C)CCN2CCc3nc(-c4ccccc4)c(-c4ccccc4)cc3C2)[C@H](OC(C)=O)[C@@H](OC(C)=O)[C@H]1OC(C)=O` ) is 5.01 µM (inconclusive)

# AC50 (molecule: `Cc1ccc(S(=O)(=O)N[C@H]2COC(=O)[C@H](C)COC(=O)[C@H](C)NC(=O)C/C=C\[C@H]2C)cc1` ) is 3.98 µM (inconclusive)

The reported measurements were obtained from ChEMBL document CHEMBL1201862.
